Where do the numbers come from? From PubChem BioAssay AID720511.

test-method-notes: F508del CFTR correction, initial screen, CFBE line, single point (AID 720511);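 further: cells transiently co-express mutant CFTR-F508del with the halide-sensitive YFP; corrector assay measuring rescue of mutant channel to the surface after 24 h compound exposure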
settings: CFBE cells, YFP halide quenching, at 7.58 µM, active compounds read high, % fluorescence drop versus neutral controls, stimulated with forskolin plus potentiator P3
The campaign covered roughly 350,000 compounds. About 1,300 (0.37%) were called active. The sample holds actives, similar compounds and a random draw of the others, so the mix is not that of the screen.
Collected activity (quench increase) values appear next to each entry.
Answer format: numeric, % implied, no suffix.

Recorded results for 6 compounds are shown here.
> print(dat)
                                   compound  assay.result
1  CC[N+]1(CC)CC2=Cc3ccccc3CC2C1 (configuration not stated)          13.8
2  Cc1cccc(S(=O)(=O)N2C[C@@H]3[C@H](c4ccccc42)[C@H](CO)N3CC2CCOCC2)c1            -1
3  COc1cc(C(=O)NCc2cc3cc(Cl)ccc3n2C)cc(OC)c1OC          2.35
4  C[C@H](CO)N1C[C@H](C)[C@H](CN(C)Cc2ccc(C(F)(F)F)cc2)Oc2ccc(NS(C)(=O)=O)cc2C1=O          3.24
5  NC(=O)c1ncn([C@@H]2O[C@H](C(=O)O)[C@@H](O)[C@H]2O)n1          2.03
6  Cc1ccccc1-c1ccc2c(c1)O[C@H](CN(C)C)[C@@H](C)CN([C@H](C)CO)S2(=O)=O         0.748

Ask | Bench note: what activity (quench increase) did "CNC(=O)c1cccc2nc3ccccc3nc12" show?
Reply | -0.402

Ask | Input "C[C@H]1CN([C@@H](C)CO)C(=O)c2ccccc2-c2ccccc2CO[C@@H]1CN(C)C(=O)CCN(C)C"
Reply | -0.09
